Values from PubChem BioAssay (NCATS)

molecular target: Rap guanine nucleotide exchange factor 4 (Homo sapiens); assay: Confirmatory qHTS for agonist of cAMP-regulated guanine nucleotide exchange factor 4 (EPAC2) (AID 1645884); conditions: EPAC2 GEF activity, Rap1B-BODIPY-GDP fluorescence; series mostly up to 154 µM;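 further: nucleotide exchange releases bodipy-GDP from Rap1 and this lowers its fluorescence; nearly all actives have a fitted effect of over 65% in size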
Results filed as inconclusive are left out. Active and inactive are the calls of the source. The call rests on the fitted dose curve; in most records, active means well fitted activation curve with a large enough effect; inconclusive means small, poorly fitted or top-dose-only effect; inactive means no such curve, though single readings can be large or run the other way.
observable: activation

# molecule, observable, obs value
data = [
    ("O=C(CC(=O)NC1CCCCC1)N/N=C/c1ccc(Cl)cc1", "activation", "inactive"),
    ("CCCOc1ccc(/C=C2/C(=O)ON=C2C)cc1Cl", "activation", "inactive"),
    ("O=C(N/N=C/c1c(O)n(-c2ccccc2Cl)c(=O)c2ccccc12)C1COc2ccccc2O1 (stereo unspecified)", "activation", "inactive"),
]
